This collection of values is drawn from PubChem BioAssay (NCI).

# System: HL-60(TB) leukemia
# testSummary: NCI tumour cell line growth inhibition, 48 h
Please enter Met where TGI is greater than or equal to 20 µM, and Not met where it is lower.

[in] # bool: TGI of `CN(C)CCn1nc(N)c2nc3cc(C(F)(F)F)ccc3nc21` >= 20 µM
[out] Met

[in] # bool: TGI of Cc1ccc(S(=O)OC23CC4CC(CC(C4)C2)C3)cc1 (configuration not stated) >= 20 µM
[out] Met

[in] # bool: TGI of `COc1ccc(-c2c(N)n[nH]c2-c2cc(OC)c(OC)c(OC)c2)cc1` >= 20 µM
[out] Not met

[in] # bool: TGI of `C#CCN(Cc1nc2cc(C(F)(F)F)ccc2nc1-c1ccccc1)c1ccc(F)c(F)c1` >= 20 µM
[out] Met

[in] # bool: TGI of `CC(C)c1cccc(C(C)C)c1OS(=O)(=O)NC(=O)OC(C(F)(F)F)C(F)(F)F` >= 20 µM
[out] Met

[in] # bool: TGI of `N#C/C(=C\c1ccccc1Br)C(=O)c1ccccc1` >= 20 µM
[out] Not met

[in] # bool: TGI of `CC[C@H](NC(=O)[C@H](CS(=O)(=O)CC1CC1)N[C@@H](c1ccc(F)cc1)C(F)(F)F)C(=O)C(=O)NC1CC1` >= 20 µM
[out] Met

[in] # bool: TGI of `CC(=O)CC(=O)/C=C/c1cccs1` >= 20 µM
[out] Met

[in] # bool: TGI of `C#CCN(C)C(=O)N(CC#C)N=O` >= 20 µM
[out] Met

[in] # bool: TGI of CC1(C)CC2C(C1=O)C1(C)CCCC2(C)C1=O (configuration not stated) >= 20 µM
[out] Met

[in] # bool: TGI of `Cc1nnc(-c2ccc(-c3nc4ccccc4o3)cc2)o1` >= 20 µM
[out] Met

[in] # bool: TGI of `ClCC#CCSc1ncnc2c1ncn2CC#CCCl` >= 20 µM
[out] Not met

----------
# Tested on: SNB-19 CNS
# testSummary: NCI tumour cell line growth inhibition, 48 h
observedProperty: TGI

[in] With SNB-19 CNS as the test system, provide measured TGI for this compound: C=CCC(CNC(=O)OCc1ccccc1)OC(=O)OCc1ccccc1 (stereo unspecified)
[out] > 100 µM

[in] With SNB-19 CNS as the test system, provide measured TGI for this compound: O=C1NC2(C=Cc3c(ccc4ccccc34)O2)Oc2ccccc21 (stereo unspecified)
[out] 79.1 µM

[in] With SNB-19 CNS as the test system, provide measured TGI for this compound: `COc1ccc(/C=N/N=C(\[O-])c2ccncc2)cc1F.COc1ccc(/C=N\N=C(/[O-])c2ccncc2)cc1F.[Cu+2]`
[out] 35.7 µM

[in] With SNB-19 CNS as the test system, provide measured TGI for this compound: N#Cc1c2c(c(-c3cccs3)n(C3OC(CO)C(O)C(O)C3O)c1=S)CCc1ccccc1-2 (stereo unspecified)
[out] > 100 µM

[in] With SNB-19 CNS as the test system, provide measured TGI for this compound: `CC(=O)n1ccc2c(Cl)ncnc21`
[out] > 100 µM

[in] With SNB-19 CNS as the test system, provide measured TGI for this compound: COc1ccc2c(c1)OCCC1=C2SCC2(C)CCN=C12 (stereo unspecified)
[out] > 100 µM
